Experiment: Cytotoxicity against human CCD-841CoN cells incubated for 24 hrs by MTT assay
Assay type: toxicity, cell-based
Observable: IC50 at 24 h

CCN(CC)/[N+]([O-])=N/OCOC(=O)CCCCOc1c(OC)cc(/C=C/C(=O)N2CCC=C(Cl)C2=O)cc1OC; 11.3 µM
